Origin of measurements: patent US20240279318A1

Consider the following binders; for each one, report its log10 of Affinity increase.
measured_on: T1, AFP158/HLA-A*02:01 complex (human)
T1 construct: biotinylated on the BSP by BirA for ELISA and panning; also called biotinylated AFP158/HLA-A*02:01 complex; Bio-AFP158
test_summary: SPR; vs AS170036 VL1VH1;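 also: crude scFv captured on sensor chip, peptide–HLA complex flowed over at several concentrations, KD estimated from association and dissociation kinetic rates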
Note the log scale: values are log10 of Affinity increase expressed in fold.

Study these solved cases before continuing.
binder: AS170036 VL1VH1 HG56I (scFv) scFv: QSALTQPRSVSGSPGQSVTISCAGTSSDVGSENYVSWYQQHPGKAPKLMIYQVNKRASGVPDRFSGSKSGNTASLTISGLQAEDEADYYCASYRSSDHNIVFGGGTKLTVLGGGGSGGGGSGGGGSEVQLVESGGGLVQPGGSLRLSCAASGFTFSSYAMSWVRQAPGKGLEWVSTINSGTISPYYADSVKGRFTISRDNSKNTLYLQMNSLRAEDTAVYYCAKNFFDGSWFLGPPAMDYWGQGTLVTVSSHHHHHH
experimental_readout: log10 of Affinity increase
endpoint_value: -0.70

binder: AS170036 VL1VH1 HP110Q (scFv) scFv: QSALTQPRSVSGSPGQSVTISCAGTSSDVGSENYVSWYQQHPGKAPKLMIYQVNKRASGVPDRFSGSKSGNTASLTISGLQAEDEADYYCASYRSSDHNIVFGGGTKLTVLGGGGSGGGGSGGGGSEVQLVESGGGLVQPGGSLRLSCAASGFTFSSYAMSWVRQAPGKGLEWVSTINSGTGSPYYADSVKGRFTISRDNSKNTLYLQMNSLRAEDTAVYYCAKNFFDGSWFLGPQAMDYWGQGTLVTVSSHHHHHH
experimental_readout: log10 of Affinity increase
endpoint_value: -0.05

binder: AS170036 VL1VH1 HG56P (scFv) scFv: QSALTQPRSVSGSPGQSVTISCAGTSSDVGSENYVSWYQQHPGKAPKLMIYQVNKRASGVPDRFSGSKSGNTASLTISGLQAEDEADYYCASYRSSDHNIVFGGGTKLTVLGGGGSGGGGSGGGGSEVQLVESGGGLVQPGGSLRLSCAASGFTFSSYAMSWVRQAPGKGLEWVSTINSGTPSPYYADSVKGRFTISRDNSKNTLYLQMNSLRAEDTAVYYCAKNFFDGSWFLGPPAMDYWGQGTLVTVSSHHHHHH
experimental_readout: log10 of Affinity increase
endpoint_value: -1.00

Answer for every listed entry: what is its log10 of Affinity increase? The entries follow.
1. AS170036 VL1VH1 HP58D (scFv) scFv: QSALTQPRSVSGSPGQSVTISCAGTSSDVGSENYVSWYQQHPGKAPKLMIYQVNKRASGVPDRFSGSKSGNTASLTISGLQAEDEADYYCASYRSSDHNIVFGGGTKLTVLGGGGSGGGGSGGGGSEVQLVESGGGLVQPGGSLRLSCAASGFTFSSYAMSWVRQAPGKGLEWVSTINSGTGSDYYADSVKGRFTISRDNSKNTLYLQMNSLRAEDTAVYYCAKNFFDGSWFLGPPAMDYWGQGTLVTVSSHHHHHH
2. AS170036 VL1VH1 HL107V (scFv) scFv: QSALTQPRSVSGSPGQSVTISCAGTSSDVGSENYVSWYQQHPGKAPKLMIYQVNKRASGVPDRFSGSKSGNTASLTISGLQAEDEADYYCASYRSSDHNIVFGGGTKLTVLGGGGSGGGGSGGGGSEVQLVESGGGLVQPGGSLRLSCAASGFTFSSYAMSWVRQAPGKGLEWVSTINSGTGSPYYADSVKGRFTISRDNSKNTLYLQMNSLRAEDTAVYYCAKNFFDGSWFVGPPAMDYWGQGTLVTVSSHHHHHH
3. AS170036 VL1VH1 HP58V (scFv) scFv: QSALTQPRSVSGSPGQSVTISCAGTSSDVGSENYVSWYQQHPGKAPKLMIYQVNKRASGVPDRFSGSKSGNTASLTISGLQAEDEADYYCASYRSSDHNIVFGGGTKLTVLGGGGSGGGGSGGGGSEVQLVESGGGLVQPGGSLRLSCAASGFTFSSYAMSWVRQAPGKGLEWVSTINSGTGSVYYADSVKGRFTISRDNSKNTLYLQMNSLRAEDTAVYYCAKNFFDGSWFLGPPAMDYWGQGTLVTVSSHHHHHH
4. AS170036 VL1VH1 HP58T (scFv) scFv: QSALTQPRSVSGSPGQSVTISCAGTSSDVGSENYVSWYQQHPGKAPKLMIYQVNKRASGVPDRFSGSKSGNTASLTISGLQAEDEADYYCASYRSSDHNIVFGGGTKLTVLGGGGSGGGGSGGGGSEVQLVESGGGLVQPGGSLRLSCAASGFTFSSYAMSWVRQAPGKGLEWVSTINSGTGSTYYADSVKGRFTISRDNSKNTLYLQMNSLRAEDTAVYYCAKNFFDGSWFLGPPAMDYWGQGTLVTVSSHHHHHH

Output line:
[-0.40, -1.00, -0.70, -0.40]

Answer for every listed entry: what is its log10 of Affinity increase? The entries follow.
1. AS170036 VL1VH1-VHG108D (scFv) scFv: QSALTQPRSVSGSPGQSVTISCAGTSSDVGSENYVSWYQQHPGKAPKLMIYQVNKRASGVPDRFSGSKSGNTASLTISGLQAEDEADYYCASYRSSDHNIVFGGGTKLTVLGGGGSGGGGSGGGGSEVQLVESGGGLVQPGGSLRLSCAASGFTFSSYAMSWVRQAPGKGLEWVSTINSGTGSPYYADSVKGRFTISRDNSKNTLYLQMNSLRAEDTAVYYCAKNFFDGSWFLDPPAMDYWGQGTLVTVSSHHHHHH
2. AS170036 VL1VH1 HG56Q (scFv) scFv: QSALTQPRSVSGSPGQSVTISCAGTSSDVGSENYVSWYQQHPGKAPKLMIYQVNKRASGVPDRFSGSKSGNTASLTISGLQAEDEADYYCASYRSSDHNIVFGGGTKLTVLGGGGSGGGGSGGGGSEVQLVESGGGLVQPGGSLRLSCAASGFTFSSYAMSWVRQAPGKGLEWVSTINSGTQSPYYADSVKGRFTISRDNSKNTLYLQMNSLRAEDTAVYYCAKNFFDGSWFLGPPAMDYWGQGTLVTVSSHHHHHH

Output line:
0.74
0.00
